- ASSAY_REMARKS: NCI Yeast Anticancer Drug Screen. Data for the mlh1 rad18 strain (AID 175)
- MEASUREMENT_PARAMETERS: S. cerevisiae mlh1 rad18 strain growth inhibition, hits give high values; at 50.0 µM unless noted
About 79,000 compounds went through this panel and 15% of them were active in at least one assay; those are over-represented in the sample as a whole.
EXPERIMENTAL_READOUT: growth inhibition (%)
Reply numerically in %, unit not repeated.

Use these answered entries as a reference point.
>>> df
                                   molecule  experimental_readout  unit_of_measurement  result
0  C=C1CC[C@](C)(O)[C@@]2(C)CC[C@H]3C(=C(C)C)C(=O)C[C@]3(C)C[C@H]12     growth inhibition                    %    23.8
1        COc1ccc2c(O)c(Oc3ccccc3)c(=O)oc2c1     growth inhibition                    %    13.1
2          CCOC(=O)c1cnc2c(cnn2CC)c1NCC(C)C     growth inhibition                    %    3.35
3  C1C2OC2CC2OC12 (configuration not stated)     growth inhibition                    %   -4.25
4  CC(CCC#CC(=O)O)OC1CCCCO1 (configuration not stated)     growth inhibition                    %   -14.2

## Task Consider the molecule shown here: CN(C)CC1(C)CC/C(=C\c2ccc3c(c2)OCO3)C1=O (configuration not stated) What is its recorded growth inhibition?
## Result 56

## Task Try the molecule Nc1nc(N)c2nc(SC34CC5CC(CC(C5)C3)C4)c(N)nc2n1
## Result 1.4

---

growth inhibition reference
- ASSAY_REMARKS: NCI Yeast Anticancer Drug Screen. Data for the rad50 strain (AID 155);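 further: 0% = growth of vehicle-only cultures of the same strain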
- MEASUREMENT_PARAMETERS: S. cerevisiae rad50 strain growth inhibition, hits give high values; at 50.0 µM unless noted
The panel holds about 79,000 compounds, 15% with a hit somewhere; the sample as a whole holds those more often.
Reply numerically in %, unit not repeated.

>>> df
                                   compound  result
0  FC(F)(F)COP1(OCC(F)(F)F)=NP(OCC(F)(F)F)(OCC(F)(F)F)=NP(OCC(F)(F)F)(OCC(F)(F)F)=N1    -1.2
1                      O=C1CCCN(c2ccccc2)N1    24.4
2                 CCOC(CC(=O)NCCNC(C)=O)OCC      38
3  NC(=O)C(N)CC12CC3CC(CC(C3)C1)C2 (stereo unspecified)      -6
4  CCOC(=O)c1cc2c(-c3ccccc3)c(-c3ccccc3)c(-c3ccccc3)c(-c3ccccc3)n2n1    10.2

## Task Consider the compound shown here: O=C(O)C1=Cc2ccccc2OC1 What is its recorded growth inhibition?
## Result 2.7

## Task Try the compound O/C(=C/c1ncnc2ccccc12)c1cccc(Cl)c1
## Result 12.5

## Task Try the compound CNC(=O)NCCCCC(NC(=O)OCc1ccccc1)C(=O)OCc1ccccc1 (stereo unspecified)
## Result 3.15

## Task Try the compound CN(C)/N=C(\CBr)c1ccc([N+](=O)[O-])cc1
## Result -1.8

## Task Try the compound CCOC(=O)C(CC(C)C)NC(=O)c1ccc(C)c(OCc2ccccc2)c1[N+](=O)[O-] (stereo unspecified)
## Result 17.9

## Task Try the compound COc1ccc(/C=C(\C(=O)OCC(C)C)c2ccc(OC)c(OC)c2)cc1OC
## Result 2.6

---

- ASSAY_REMARKS: NCI Yeast Anticancer Drug Screen. Data for the rad50 strain (AID 155);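 further: 0% = growth of vehicle-only cultures of the same strain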
- MEASUREMENT_PARAMETERS: S. cerevisiae rad50 strain growth inhibition; at 50.0 µM unless noted
- Protocol: Growth inhibition of yeast strains with defined genetic alterations is measured as a screen for potential anti-cancer activity. Selected strains with alterations in DNA damage repair or cell cycle control were exposed to compounds and growth inhibition was measured relative to vehicle treated controls. The strain used in this assay is rad50
The panel holds about 79,000 compounds, 15% with a hit somewhere; the sample as a whole holds those more often. Active and inactive are the calls of the source. No stated cut-off is given here; in the data, active means growth inhibition above about 70%; inactive means the rest.
A correct response names exactly one class from active, inactive

The following molecules have reported results that may help.
MOLECULE	LABEL
Cc1nc2c(cc1C(=O)NN)c(=O)n(C)c(=O)n2C	inactive
C/C(=N\NC(=O)c1ccncc1)c1cc(Cl)ccc1Cl	inactive
NCCS(=O)(=O)O	inactive
COC(=O)C(Cc1ccccc1)N=Cc1c(O)c(O)c(C(C)C)c2cc(C)c(-c3c(C)cc4c(C(C)C)c(O)c(O)c(C=NC(Cc5ccccc5)C(=O)OC)c4c3O)c(O)c12 (stereo not drawn)	inactive

## Task // return assay outcome for CC1=C(C)CC2(CCCCC2=O)S(=O)C1 (stereo not drawn)
## Result inactive

## Task Try the molecule CC1C(c2ccccc2)OCCN1C(N)=S (stereo not drawn)
## Result inactive

## Task Try the molecule CCOC(=S)Nc1ccccc1[N+](=O)[O-]
## Result inactive

## Task Try the molecule OCC1OC(n2cnc3c(/C=C(/O)c4ccccc4)ncnc32)C(O)C1O (stereo not drawn)
## Result inactive

## Task Try the molecule O=C(N1CCN(C(=O)S(=O)(=O)c2ccccc2)CC1)S(=O)(=O)c1ccccc1
## Result inactive

## Task Try the molecule C=C(C)C(C)/C(C)=N/NC(N)=O (stereo not drawn) (tested in a mixture with another compound)
## Result inactive

## Task Try the molecule COc1ccc(C2=Nc3ccccc3N=C(SC)C2)cc1
## Result inactive

---

growth inhibition reference
- ASSAY_REMARKS: NCI Yeast Anticancer Drug Screen. Data for the bub3 strain (AID 167)
- MEASUREMENT_PARAMETERS: S. cerevisiae bub3 mutant strain, hits give high values; at 50.0 µM unless noted
The panel holds about 79,000 compounds, 15% with a hit somewhere; the sample as a whole holds those more often.
Reply numerically in %, unit not repeated.

Use these answered entries as a reference point.
>>> print(df.to_string())
                           substance_smiles  result
0           Cc1cc(C)c(C(=O)Cc2ccccc2)c(C)c1    11.4
1                        Nc1ccc(C(=O)O)cc1N    1.45
2  O=c1oc2ccccc2c(O)c1Cc1ccccc1Cc1c(O)c2ccccc2oc1=O   -19.9
3       Cc1ccc(C)c(Nc2c(C)ccc(C)c2C(=O)O)c1   -10.1
4          N#C/C(=C\c1c[nH]c2ccccc12)C(N)=O    -7.3

Read the next record carefully.
## Task Consider the molecule shown here: O=c1[nH]nc(-c2ccccc2)nc1/C(=N\Nc1ccccc1)c1ccccc1 What is its recorded growth inhibition?
## Result 12.5

---

- ASSAY_REMARKS: NCI Yeast Anticancer Drug Screen. Data for the mlh1 rad18 strain (AID 175)
- MEASUREMENT_PARAMETERS: S. cerevisiae mlh1 rad18 strain growth inhibition, hits give high values; at 50.0 µM unless noted
The panel holds about 79,000 compounds, 15% with a hit somewhere; the sample as a whole holds those more often.
Would you mind labelling by growth inhibition? At or over 30% is class 1, under is class 0.

In [3]: df
Out[3]:
                                   compound    label
0  Cc1cccc(C(C)C)c1N1C(=O)C(=O)C(c2nc3ccccc3o2)C(=O)C1=O  class 1

## Task Is growth inhibition for CCCCN(Cc1ccccc1)C(=S)Nc1ccccc1 at or above 30%?
## Result class 1

## Task Try the compound COC1OC(C)C(OC(=O)c2ccccc2)C(OC(=O)c2ccccc2)C1OC(=O)c1ccccc1 (stereo not given)
## Result class 0

## Task Try the compound O=C(NO)Nc1ccccc1Cl
## Result class 0

---

- ASSAY_REMARKS: NCI Yeast Anticancer Drug Screen. Data for the mec2-1 strain (AID 157)
- MEASUREMENT_PARAMETERS: S. cerevisiae mec2-1 strain, hits give high values; at 50.0 µM unless noted
This is part of a sample that, as a whole, favours compounds with a hit. Of some 79,000 tested, about 15% had one in any assay.
growth inhibition reference
Reply numerically in %, unit not repeated.

Use these answered entries as a reference point.
>>> print(df.to_string())
                                   compound  experimental_readout  result
0                   CSC(=S)N/N=C(\C)c1cccs1     growth inhibition    1.85
1                    O=C(Nc1cccc(I)c1)OCCCl     growth inhibition     7.5
2  O=S1(=O)CCC12CC1c3ccccc3C2c2ccccc21 (stereo not drawn)     growth inhibition   -6.05
3              O=C(Oc1ccccc1)C(=O)Oc1ccccc1     growth inhibition   -24.9
4          Nn1c(-c2cccc(Cl)c2)nc2ccccc2c1=O     growth inhibition    5.45

## Task Consider the compound shown here: O=C(Nc1ccc(Cl)cc1)Nc1nnc(-c2cccc(Cl)c2)o1 What is its recorded growth inhibition?
## Result 5.75

## Task Try the compound CCN1CCN(c2nc3ccccc3c3c2CCOc2ccccc2-3)CC1
## Result -16.9

## Task Try the compound NC1(CC(=O)O)CCN(Cc2ccccc2)CC1
## Result 13

## Task Try the compound N#Cc1ccc(/C=C(/C(=O)c2ccccc2)c2ccccc2)cc1
## Result -31.9

## Task Try the compound CS(=O)(=O)OCCN(CCOS(C)(=O)=O)c1cc(C(N)=O)c([N+](=O)[O-])cc1[N+](=O)[O-]
## Result 9.55
